Reference for the values: ChEMBL document CHEMBL2034817

target: Cytochrome P450 2D6 (Homo sapiens)
Sequence (P10635 whole entry): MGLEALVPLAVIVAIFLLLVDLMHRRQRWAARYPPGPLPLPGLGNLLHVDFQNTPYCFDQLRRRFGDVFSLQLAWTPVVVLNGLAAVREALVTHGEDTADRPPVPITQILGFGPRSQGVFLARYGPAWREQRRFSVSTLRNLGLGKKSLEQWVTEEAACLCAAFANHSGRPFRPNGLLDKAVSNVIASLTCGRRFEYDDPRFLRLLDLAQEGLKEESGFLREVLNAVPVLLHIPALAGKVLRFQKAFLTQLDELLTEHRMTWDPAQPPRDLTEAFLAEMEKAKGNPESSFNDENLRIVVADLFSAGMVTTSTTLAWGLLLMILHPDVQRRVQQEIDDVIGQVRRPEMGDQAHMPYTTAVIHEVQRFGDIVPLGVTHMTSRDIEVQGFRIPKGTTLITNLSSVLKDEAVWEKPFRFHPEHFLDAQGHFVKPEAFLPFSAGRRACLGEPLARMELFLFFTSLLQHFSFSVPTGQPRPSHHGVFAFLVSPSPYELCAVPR
Quantity Measured: IC50

Request: Name the recorded IC50 for `C[C@H](COc1ccc(-c2cn[nH]c(=O)c2)cc1)CN1CCC[C@H]1C` .
Response: > 30 µM

* * *

Overview of recorded AUC(0-t) for various compounds
assay: AUC (0 to t) in Sprague-Dawley rat at 5 mg/kg, po; type: ADME, organism-based; set-up: dose 5 mg/kg, route oral; conditions: plasma
// units = ng·h/mL; emit number, no label

Some compounds with known AUC(0-t) results, for comparison:
[
  {
    "Smiles Repr": "C[C@H](COc1ccc(-c2cn[nH]c(=O)c2)cc1)CN1CCC[C@H]1C",
    "Unit Name": "ng·h/mL",
    "AUC(0-t)": 762
  },
  {
    "Smiles Repr": "C[C@@H]1CCCN1CCCOc1ccc(-c2cn[nH]c(=O)c2)cc1",
    "Unit Name": "ng·h/mL",
    "AUC(0-t)": 1290
  }
]

Request: // AUC(0-t) lookup, key: `COCn1ncc(-c2ccc(OCCCN3CCC[C@H]3C)cc2)cc1=O`
Response: 42
